Cited source for all entries: PubChem BioAssay

Protocol Description: growth suppression of beta-catenin knockout HCT116, pilot screen, human colon tumor cells (AID 823);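 further: 0% = wells killed by 20 µM Hyamine and 100% = untreated DMSO cell wells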
Test Context: CellTiter-Glo, 60 h, at 10 µM, active compounds read low
Records with an inconclusive call do not appear.
Reported Endpoint: viability (%)
All answers are understood in %, so give the number only.

INSERT INTO assay_data (molecule, reported) VALUES
  ('C=CCSc1nnc(-c2cc(Br)ccc2N)c(=O)[nH]1', 102),
  ('CC(C)=CC1C(C(=O)Nc2ccc(Br)cn2)C1(C)C (stereo not drawn)', 60.7),
  ('COc1cccc(C2CC(c3ccccc3OC)n3nc(N)nc3N2)c1 (stereo not drawn)', 98.1);

What value of measured viability is listed for O=C1N2CN(C(c3ccccc3)c3ccccc3)CN=C2SC1(CO)CO ?
62.9

Now the same for CCN(CC)CCCNC(=O)Cn1ncc2c(=O)oc3ccc(C)cc3c21
101

Now the same for O=C(C1CCCN(S(=O)(=O)c2cccc3cccnc23)C1)N1CCc2ccccc21 (stereo not drawn)
68.7

Now the same for Cc1cc(OCC(=O)N(C)C)c2c(-c3ccccc3)cc(=O)oc2c1
97.4

Now the same for COc1ccc(C2C(C(=O)N3CCOCC3)CCC(=O)N2c2cc(OC)c(OC)c(OC)c2)cc1 (stereo not drawn)
99.7

Now the same for CCN1CCN(c2cc(C)c3cc(NC(=O)c4ccncc4)ccc3n2)CC1
82.6

Now the same for Cc1cc2nc(-c3cccc(NC(=O)c4ccc(Br)o4)c3C)oc2cc1C
87

Now the same for CCOC(=O)C1=C(C)NC(C)=C(C(=O)OCC)C1C(=O)O
93.5

Now the same for COc1ccc(C(=O)Nc2ccc3oc(-c4cccc(F)c4)nc3c2)cc1OC
95.1

Now the same for Cc1cccc(NC(=O)CN(C)S(=O)(=O)c2cccc3cccnc23)c1
96.5

Now the same for Cc1occc1C(=O)NC1CCCCCC1
95.5

Now the same for COc1ccc(C2(CNC(C)=O)CCOCC2)cc1OC
103

Now the same for CCOC(=O)C1CCN(C(=O)c2cc3c(-c4ccc(OC)c(OC)c4)nn(C)c3s2)CC1
107

Now the same for CCOc1ccc(C2c3c(oc4ccccc4c3=O)C(=O)N2c2ccccn2)cc1OC (stereo not drawn)
92.3

Now the same for COc1ccc(OC)c(-n2c(SCC(=O)Nc3cc(C)on3)nnc2-c2c[nH]c3ccccc23)c1
79.2

Now the same for O=C1c2ccccc2C(O)N1Cc1ccco1 (stereo not drawn)
93.6

Now the same for CCn1c(=O)cc(N2CCC3(CC2)OCCO3)[nH]c1=O
96.8

Now the same for CC(Oc1ccccc1)C(=O)OCC(=O)NC(=O)NCc1ccco1 (stereo not drawn)
97.9

Now the same for O=C(NCc1cn2ccsc2n1)c1cccs1
95.1

Now the same for COc1cccc(-n2c(Cc3cc(=O)[nH]c(=O)[nH]3)nnc2SCC(=O)NC2CCCCC2)c1
100
